Ref: paper PMC7290864

TESTED ON: D52N mutant A2AAR (Homo sapiens, UniProt P29274, D52N)
Sequence (P29274 whole entry D52N): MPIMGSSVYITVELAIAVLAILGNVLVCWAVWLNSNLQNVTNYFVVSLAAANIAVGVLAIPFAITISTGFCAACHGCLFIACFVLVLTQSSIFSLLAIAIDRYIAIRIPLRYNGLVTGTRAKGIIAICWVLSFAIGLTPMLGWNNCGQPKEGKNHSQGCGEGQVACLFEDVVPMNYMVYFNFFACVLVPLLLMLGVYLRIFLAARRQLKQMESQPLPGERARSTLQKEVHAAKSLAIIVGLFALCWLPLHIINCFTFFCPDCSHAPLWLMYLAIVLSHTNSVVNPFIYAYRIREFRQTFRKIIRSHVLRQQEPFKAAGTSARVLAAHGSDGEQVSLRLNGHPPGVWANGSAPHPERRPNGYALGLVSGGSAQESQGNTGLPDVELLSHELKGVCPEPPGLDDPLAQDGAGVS
ASSAY: [^3H]ZM241385 binding to D52N mutant A2AAR expressed in HEK293 cells
CONDITION: 1 nM [^3H]ZM241385
For each of the molecules below, state its Ki.
One number for each entry, in µM.

NC(N)=NC(=O)c1nc(Cl)c(N2CCCCCC2)nc1N [HMA, 5-(N,N-hexamethylene)amiloride, reference compound]; 15.8

Let us move to another entry and its Ki.
Suppose we examine the molecule Nc1nc2c(cnn2CCCc2ccc(OCC(=O)NCCCCNC(=O)CCCCCNC(=O)COc3ccc(/C=C/C4=[N+]5C(=Cc6ccc(-c7cccs7)n6[B-]5(F)F)C=C4)cc3)cc2)c2nc(-c3ccco3)nn12 [MRS7396] ; what Ki value has been reported?
0.00079
